# RUN DESCRIPTION: Clearance in beagle dog at 1 mg/kg, iv
# Assay type: ADME, organism-based, Canis lupus familiaris
# Parameters: dose 1 mg/kg, route intravenous
# PARTICULARS: in vivo
RESULT TYPE: clearance
In your response, put the unit directly after the numeric value.

Please give the measured clearance for this molecule: CC(C)(C)NC(=O)NCCN1CCC(CO)(CNC(=O)c2cc(Cl)cc(Cl)c2)CC1 17 mL/min/kg

====

# ASSAY TARGET: Voltage-dependent T-type calcium channel subunit alpha-1H (Homo sapiens)
# Sequence (O95180 whole entry): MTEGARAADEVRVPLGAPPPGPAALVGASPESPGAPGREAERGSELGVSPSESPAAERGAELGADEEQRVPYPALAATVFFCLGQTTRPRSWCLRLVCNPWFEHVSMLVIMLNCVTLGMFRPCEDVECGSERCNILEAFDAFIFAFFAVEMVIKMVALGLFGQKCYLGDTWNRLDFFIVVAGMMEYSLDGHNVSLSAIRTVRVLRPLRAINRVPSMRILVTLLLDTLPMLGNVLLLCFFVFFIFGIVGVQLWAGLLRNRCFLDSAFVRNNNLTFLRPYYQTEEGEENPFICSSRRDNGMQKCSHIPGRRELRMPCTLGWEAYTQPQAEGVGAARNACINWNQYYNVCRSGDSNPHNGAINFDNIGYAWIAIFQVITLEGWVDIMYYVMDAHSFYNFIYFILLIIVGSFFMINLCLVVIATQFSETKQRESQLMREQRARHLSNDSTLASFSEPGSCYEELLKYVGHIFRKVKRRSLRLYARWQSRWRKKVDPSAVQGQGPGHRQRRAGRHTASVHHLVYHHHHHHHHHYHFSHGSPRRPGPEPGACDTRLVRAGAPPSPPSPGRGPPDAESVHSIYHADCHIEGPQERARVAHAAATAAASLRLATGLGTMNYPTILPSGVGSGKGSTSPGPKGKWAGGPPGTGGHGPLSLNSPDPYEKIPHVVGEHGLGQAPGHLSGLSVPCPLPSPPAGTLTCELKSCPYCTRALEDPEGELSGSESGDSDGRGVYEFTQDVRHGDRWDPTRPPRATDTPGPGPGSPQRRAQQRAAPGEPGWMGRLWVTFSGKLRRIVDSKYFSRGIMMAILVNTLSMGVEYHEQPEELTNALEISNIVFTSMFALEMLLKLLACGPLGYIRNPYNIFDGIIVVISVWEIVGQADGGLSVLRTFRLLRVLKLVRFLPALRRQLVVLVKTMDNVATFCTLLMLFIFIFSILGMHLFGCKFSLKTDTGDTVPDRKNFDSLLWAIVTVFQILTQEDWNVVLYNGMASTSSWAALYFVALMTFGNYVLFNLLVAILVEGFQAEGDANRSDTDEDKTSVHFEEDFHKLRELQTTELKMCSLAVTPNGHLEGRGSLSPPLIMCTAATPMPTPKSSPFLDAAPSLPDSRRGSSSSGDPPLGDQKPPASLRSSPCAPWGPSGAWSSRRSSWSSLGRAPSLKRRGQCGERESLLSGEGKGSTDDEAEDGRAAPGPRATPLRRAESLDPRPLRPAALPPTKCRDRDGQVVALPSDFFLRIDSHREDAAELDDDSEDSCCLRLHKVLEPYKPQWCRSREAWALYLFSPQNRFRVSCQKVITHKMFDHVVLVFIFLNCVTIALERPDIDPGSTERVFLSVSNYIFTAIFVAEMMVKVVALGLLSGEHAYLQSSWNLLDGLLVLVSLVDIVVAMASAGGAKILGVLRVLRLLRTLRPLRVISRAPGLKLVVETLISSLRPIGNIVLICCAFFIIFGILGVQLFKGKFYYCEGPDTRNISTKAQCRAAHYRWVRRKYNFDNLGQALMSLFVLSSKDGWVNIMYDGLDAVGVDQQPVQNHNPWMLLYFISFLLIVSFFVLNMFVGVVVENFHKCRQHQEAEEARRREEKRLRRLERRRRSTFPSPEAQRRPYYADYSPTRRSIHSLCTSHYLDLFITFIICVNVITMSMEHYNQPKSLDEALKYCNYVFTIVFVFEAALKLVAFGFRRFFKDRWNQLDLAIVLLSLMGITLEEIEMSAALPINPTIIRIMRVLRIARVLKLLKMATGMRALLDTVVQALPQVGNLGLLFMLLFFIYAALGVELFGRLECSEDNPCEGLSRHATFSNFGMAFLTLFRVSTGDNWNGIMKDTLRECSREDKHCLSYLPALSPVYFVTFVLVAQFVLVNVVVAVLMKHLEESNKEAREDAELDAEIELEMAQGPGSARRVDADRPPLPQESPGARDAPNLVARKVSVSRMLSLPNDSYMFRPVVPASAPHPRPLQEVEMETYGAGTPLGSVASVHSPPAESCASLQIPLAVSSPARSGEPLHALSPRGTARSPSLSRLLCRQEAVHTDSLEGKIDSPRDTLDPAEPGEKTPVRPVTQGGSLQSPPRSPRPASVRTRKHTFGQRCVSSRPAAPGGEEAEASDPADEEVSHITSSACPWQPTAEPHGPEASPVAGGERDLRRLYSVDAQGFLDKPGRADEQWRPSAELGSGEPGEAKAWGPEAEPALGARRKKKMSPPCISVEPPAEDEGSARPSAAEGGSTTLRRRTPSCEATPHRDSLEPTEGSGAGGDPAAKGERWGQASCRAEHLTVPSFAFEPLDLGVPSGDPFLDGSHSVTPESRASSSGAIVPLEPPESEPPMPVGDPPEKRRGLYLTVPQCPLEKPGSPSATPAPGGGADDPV
# RUN DESCRIPTION: Inhibition of T-type calcium channel Cav3.2 (unknown origin) by IONWORKS assay
RESULT TYPE: IC50 (nM)
Give bare numbers, in nM.

Please give the measured IC50 for this molecule: CC(C)(C)NC(=O)NCCN1CCC(CO)(CNC(=O)c2cc(Cl)cc(Cl)c2)CC1 1200

====

Would you kindly list Kp uu at 4 h for each of these molecules?
# RUN DESCRIPTION: Ratio of unbound concentration in brain to unbound concentration in plasma in Sprague-Dawley rat at 2 umol/kg/hr, iv administered as infusion measured after 4 hrs
# Format: ADME, organism-based
# PARTICULARS: brain and plasma (unbound concentrations), read-out: K(p,uu,brain)
Give bare numbers.

Use these answered entries as a reference point.
STRUCTURE SMILES: CC(C)(C)NC(=O)CN1CCN(CC(=O)NC23CC4CC(CC(C4)C2)C3)CC1
Kp uu at 4 h: 0.4

STRUCTURE SMILES: O=C(CN1CCN(CCC2CCOCC2)CC1)NC12CC3CC(CC(C3)C1)C2
Kp uu at 4 h: 1.2

STRUCTURE SMILES: CC(C)(C)S(=O)(=O)CCCN1CCN(CC(=O)NC23CC4CC(CC(C4)C2)C3)CC1
Kp uu at 4 h: 0.3

STRUCTURE SMILES: CC(C)(C)NC(=O)NCCN1CCN(CC(=O)NC23CC4CC(CC(C4)C2)C3)CC1
Kp uu at 4 h: 0.02

Kindly review the next molecule as well.
Please give the measured Kp uu at 4 h for this molecule: CC(C)(C)CS(=O)(=O)NCCN1CCN(CC(=O)NC23CC4CC(CC(C4)C2)C3)CC1 0.3

====

# ASSAY TARGET: Sodium channel protein type 5 subunit alpha (Homo sapiens, UniProt Q14524)
# Sequence (Q14524 whole entry): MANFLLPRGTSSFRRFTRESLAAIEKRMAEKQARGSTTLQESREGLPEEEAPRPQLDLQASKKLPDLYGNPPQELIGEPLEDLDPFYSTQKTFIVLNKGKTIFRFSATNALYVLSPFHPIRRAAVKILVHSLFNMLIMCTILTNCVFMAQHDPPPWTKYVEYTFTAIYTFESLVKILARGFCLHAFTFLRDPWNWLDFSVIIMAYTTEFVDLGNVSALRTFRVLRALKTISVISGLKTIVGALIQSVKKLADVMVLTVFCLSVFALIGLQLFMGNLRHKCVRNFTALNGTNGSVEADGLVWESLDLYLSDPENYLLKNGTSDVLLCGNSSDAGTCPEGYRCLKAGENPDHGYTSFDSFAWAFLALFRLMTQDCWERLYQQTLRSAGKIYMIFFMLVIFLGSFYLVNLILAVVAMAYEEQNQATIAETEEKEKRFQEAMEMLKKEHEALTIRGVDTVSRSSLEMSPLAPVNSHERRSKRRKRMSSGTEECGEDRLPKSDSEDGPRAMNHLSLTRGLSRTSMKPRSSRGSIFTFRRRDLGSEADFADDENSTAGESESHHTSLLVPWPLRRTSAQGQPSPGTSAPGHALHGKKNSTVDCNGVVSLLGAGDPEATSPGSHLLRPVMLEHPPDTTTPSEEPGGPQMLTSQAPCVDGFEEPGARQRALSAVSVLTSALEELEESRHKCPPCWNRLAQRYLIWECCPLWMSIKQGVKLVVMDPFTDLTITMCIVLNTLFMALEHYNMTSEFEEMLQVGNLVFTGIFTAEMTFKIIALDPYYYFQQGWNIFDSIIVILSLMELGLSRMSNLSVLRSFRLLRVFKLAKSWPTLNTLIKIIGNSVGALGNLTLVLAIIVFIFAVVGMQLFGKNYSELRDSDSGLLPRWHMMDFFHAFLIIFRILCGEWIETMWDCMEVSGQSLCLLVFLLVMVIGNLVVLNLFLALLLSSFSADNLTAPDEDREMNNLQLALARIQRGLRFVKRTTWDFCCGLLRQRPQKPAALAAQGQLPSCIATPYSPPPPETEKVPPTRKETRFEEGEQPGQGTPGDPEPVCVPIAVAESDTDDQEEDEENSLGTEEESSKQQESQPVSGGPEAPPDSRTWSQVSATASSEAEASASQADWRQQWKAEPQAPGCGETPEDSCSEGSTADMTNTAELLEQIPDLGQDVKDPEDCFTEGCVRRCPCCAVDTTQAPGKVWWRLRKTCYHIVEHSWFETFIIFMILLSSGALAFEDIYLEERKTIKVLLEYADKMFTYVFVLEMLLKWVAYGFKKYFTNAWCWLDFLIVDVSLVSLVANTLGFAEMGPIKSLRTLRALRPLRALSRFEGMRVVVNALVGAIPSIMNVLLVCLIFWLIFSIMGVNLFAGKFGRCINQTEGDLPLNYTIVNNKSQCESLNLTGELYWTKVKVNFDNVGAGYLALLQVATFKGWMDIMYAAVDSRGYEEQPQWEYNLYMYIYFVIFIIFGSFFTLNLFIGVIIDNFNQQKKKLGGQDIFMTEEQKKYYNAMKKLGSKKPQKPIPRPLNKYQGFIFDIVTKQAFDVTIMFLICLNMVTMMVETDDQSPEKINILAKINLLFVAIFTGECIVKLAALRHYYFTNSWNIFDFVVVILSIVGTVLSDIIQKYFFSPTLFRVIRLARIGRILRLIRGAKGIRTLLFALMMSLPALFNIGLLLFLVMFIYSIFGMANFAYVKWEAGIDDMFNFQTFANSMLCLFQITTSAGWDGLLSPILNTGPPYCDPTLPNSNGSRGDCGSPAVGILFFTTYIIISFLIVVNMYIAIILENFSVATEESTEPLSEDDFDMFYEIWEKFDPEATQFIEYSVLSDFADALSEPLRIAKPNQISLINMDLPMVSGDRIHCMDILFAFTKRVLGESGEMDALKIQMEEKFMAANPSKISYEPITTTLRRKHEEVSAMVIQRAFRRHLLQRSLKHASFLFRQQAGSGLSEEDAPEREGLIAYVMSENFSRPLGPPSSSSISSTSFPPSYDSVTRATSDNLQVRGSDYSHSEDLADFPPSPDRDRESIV
# RUN DESCRIPTION: Inhibition of human Nav1.5 channel expressed in CHO cells by IONWORKS patch clamp assay
pIC50: −log10 of the molar value.
RESULT TYPE: pIC50

Please give the measured pIC50 for this molecule: CC(C)(C)NC(=O)NCCN1CCC(CO)(CNC(=O)c2cc(Cl)cc(Cl)c2)CC1 < 4.48

====

Would you kindly list pIC50 for each of these compounds?
# ASSAY TARGET: Cytochrome P450 2D6 (Homo sapiens)
# Sequence (P10635 whole entry): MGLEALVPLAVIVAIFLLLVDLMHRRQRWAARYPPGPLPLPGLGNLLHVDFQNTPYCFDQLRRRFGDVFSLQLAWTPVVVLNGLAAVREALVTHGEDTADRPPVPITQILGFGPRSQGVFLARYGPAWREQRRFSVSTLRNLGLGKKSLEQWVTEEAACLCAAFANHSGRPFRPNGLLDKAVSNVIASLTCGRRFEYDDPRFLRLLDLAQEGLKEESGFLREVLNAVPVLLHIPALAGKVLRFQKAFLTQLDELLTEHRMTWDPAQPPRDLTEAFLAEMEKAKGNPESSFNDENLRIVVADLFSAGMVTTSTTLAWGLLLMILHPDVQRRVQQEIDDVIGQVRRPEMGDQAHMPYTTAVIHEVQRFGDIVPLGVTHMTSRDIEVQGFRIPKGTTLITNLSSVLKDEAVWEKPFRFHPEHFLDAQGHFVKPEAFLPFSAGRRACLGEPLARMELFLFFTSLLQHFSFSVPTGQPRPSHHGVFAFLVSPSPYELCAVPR
# RUN DESCRIPTION: Inhibition of human recombinant CYP2D6-mediated 7-methoxy-4(aminomethyl)-coumarine degradation
Answers are plain numbers, as −log10 of the molar value.

State recorded pIC50 for all listed compounds.
1. CC(C)(C)NC(=O)NCCN1CCC(NC(=O)c2cc(Cl)cc(Cl)c2)C1 (configuration not stated)
2. CC(C)(C)NC(=O)NCCN1CCCC(CNC(=O)c2cc(Cl)cc(Cl)c2)C1 (configuration not stated)

[5.59, 5.80]
